biological target: RSV F protein of recombinant mKate-RSV, subtype A (strain A2) (Respiratory syncytial virus subtype A …, UniProt P03420 26-574); test: cell-based or functional assay
endpoint.name: Neut IC50 subtype A (µg/mL)
Output spec: scalar in µg/mL, unitless text.

Example cases with answers are listed next.
{"binder": "ADI-14514 (antibody, V domains shown) VH: QVQLVQSGSEVKKPGASVTVSCKASGYRFSNYGVSWVRQAPGQGLEWMGWISAYNGNTKYGNSLQGRVTLTTDTTTAYMEVRSLTSDDTAVYYCARDVPGDGVHFMDVWGKGTTVTVSS VL: EIVMTQSPLSLPVTLGQSASISCRSSQSLVHSDTNTYLTWFQQRPGQSPRRLIYKVSHRDSGVPDRFSGSGSGTTFTLKISRVEAEDVGIYYCMEGSHWAPTFGQGTKVEIK", "Neut IC50 subtype A, µg/mL": 0.046}
{"binder": "ADI-14459 (antibody, V domains shown, full-length IgG (yeast-expressed); also called Antibody Number 22; Ab# 22) VH: QVQLVQSGGGLVKPGGSLRLSCAASGFTFSNAWMSWVRQAPGKGLDWVGRIKTKADGGTRDYAAPVKGRFTISRDDSENTLYLQMTSLKTEDTGVYYCSTGPPYKYHDSTGYSVVDYWGQGTLVTVSS VL: SYELTQPPSASGTPGQRVTISCSGGSSNIGSDYVYWYQQLPGTAPKLLIYGSSQRPSGVPDRFSGSQSGTSASLAISGLRSEDEADYYCAMWDDSLNGPVFGGGTKLTVL", "Neut IC50 subtype A, µg/mL": 0.396}
{"binder": "ADI-14501 (antibody, V domains shown) VH: QVQLVQSGAEVKKPGSSVKISCKASGGTFKSQAIHWVRQAPGQGLEWMGNIIPTYGSPNFAQRFLGRVTFIADDSTGAASMDLYRLTSEDTAVYYCATAGWFGELVRFDSWGQGTLVTVSS VL: DIVMTQSPATLSVSPGERATLSCRATESISSNLAWYQQKPGQAPRLLIYGASTRATGIPARFSGSGSGTEFTLTINSLQSEDFAVYYCQQYNNWPPLTFGGGTKVDIK", "Neut IC50 subtype A, µg/mL": 12.3}

May I ask what Neut IC50 subtype A has been recorded for ADI-14478 (antibody, V domains shown) VH: EVQLVESGGGLVKPGGSLRLSCAASGFTFSDYYMSWIRQAPGKGLEWVSYISISSSYTDYADSVKGRFTISRDNAKNSLYLQMNSLRAEDTAVYYCARDQRDQAVAGRWFDPWGQGTLVTVSS VL: QSVVTQPPSVSGAPGQRVTISCTGSSSNIGAGFDVHWYQQVPGTAPKLLIYANTNRPSGVPDRFSGSKSGTSASLAITGLKAEDEADYYCQSYDNSLSGSAVFGGGTKVTVL ?
0.163

Likewise for ADI-14438 (antibody, V domains shown, full-length IgG (yeast-expressed); also called Antibody Number 1; Ab# 1) VH: QVQLVQSGAEVKKPGASVKVSCRASGFVFTSYDINWVRQAPGQGLEWMGRMNAHTGQVTYAQKFQDKVSMTRDVSITTAYLELSRLASEDTAVYYCARPDINWGQDAFDVWGQGTMVTVSS VL: DIRMTQSPSTLSASIGARVTITCRASQNIGNFLAWYQQKPGKAPKLLIYKASTLDPGVPSRFSGSGSGTEFTLTITSLQPDDFATFYCQQYKSDPTFGQGTKVEIK ?
0.289

Likewise for ADI-14452 (antibody, V domains shown, full-length IgG (yeast-expressed); also called Antibody Number 15; Ab# 15) VH: QVQLVQSGAEVKKPGSSVKVSCEASGDTFTSYAVIWVRQAPGQGLEWMGSIIPIFQTINYAPKFQGRVTLSADGSTRTVYMELGSLRSEDTAIYFCATKRYCTSPSCHGLWYFNLWGRGTLVTVSS VL: DIVMTQSPLSLPVTPGEPASISCRSSKSLLDSDDGNTYLDWYLQKPGQSPQILIYMLSHRASGVPDRFSGSGSGTDFTLKISRVEAEDVGVYYCMQRVEYPYSFGQGTKVEIK ?
0.076
